- STUDY_SYSTEM: herpes simplex virus type 2 (HSV-2) thymidine kinase (Human herpesvirus 2, UniProt P04407)
- Sequence (P04407 whole entry): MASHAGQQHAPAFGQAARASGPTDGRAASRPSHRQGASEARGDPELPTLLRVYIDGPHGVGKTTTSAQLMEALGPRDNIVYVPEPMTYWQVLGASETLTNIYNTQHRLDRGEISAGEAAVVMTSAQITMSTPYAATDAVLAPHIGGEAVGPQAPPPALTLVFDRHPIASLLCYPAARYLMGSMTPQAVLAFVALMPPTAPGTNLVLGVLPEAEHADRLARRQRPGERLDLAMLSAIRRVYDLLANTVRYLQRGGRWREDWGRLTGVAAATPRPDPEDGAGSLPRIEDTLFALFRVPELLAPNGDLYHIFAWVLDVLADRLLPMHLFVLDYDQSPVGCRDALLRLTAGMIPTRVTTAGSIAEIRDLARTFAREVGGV
- MEASUREMENT_DESCRIPTION: inhibition of herpes simplex virus type 2 (HSV-2) thymidine kinase in vitro
- Assay type: biochemical
- TEST_CONTEXT: HSV-2 thymidine kinase extract; 0.3 μM 3H-thymidine, 5 mM ATP, pH 8, 37° C., 30 minutes; read-out: IC50 (concentration which inhibits enzyme activity by 50%)
- Method: In this test, the assay mixture contains […] Tris-HCl, pH 8, 5 mM magnesium chloride, 5 mM ATP, 0.3 μM ^3 H-thymidine (50 Ci/mmol), suitably diluted thymidine kinase extract and various concentrations of a compound of formula I or a tautomer thereof in a total volume of 100 μl. […] The radioactivity remaining bound to the discs is then measured by scintillation spectrophotometry. […]
IC50 values by entry

| COMPOUND | IC50, nM |
| --- | --- |
| CCc1cn([C@@H]2O[C@H](CNC(=O)C(C)Oc3ccc(Cl)cc3Cl)[C@@H](O)[C@@H]2F)c(=O)[nH]c1=O (mixture of isomers) [Compound F] | 4 |
| CCc1cn([C@H]2C[C@H](O)[C@@H](CNC(=O)C(C)Oc3ccc(Cl)cc3[N+](=O)[O-])O2)c(=O)[nH]c1=O (mixture of isomers) [Compound H] | 2.7 |
| CCc1cn([C@H]2C[C@H](O)[C@@H](CNC(=O)C(C)Oc3ccccc3-c3ccccc3)O2)c(=O)[nH]c1=O (mixture of isomers) [Compound E] | 5 |

* * *

- STUDY_SYSTEM: herpes simplex virus type 2 (HSV-2) thymidine kinase (Human herpesvirus 2, UniProt P04407)
- MEASUREMENT_DESCRIPTION: inhibition of herpes simplex virus type 2 (HSV-2) thymidine kinase in vitro
- Type: biochemical
pIC50: −log10 of the molar value.
RECORDED_METRIC: pIC50

| ITEM_SMILES | READING |
| --- | --- |
| CCc1cn([C@H]2C[C@H](O)[C@@H](CNC(=O)Cc3c(Cl)cccc3Cl)O2)c(=O)[nH]c1=O | 8.52 |

* * *

- STUDY_SYSTEM: UniProt P04407
- MEASUREMENT_DESCRIPTION: inhibition of herpes simplex virus type 2 (HSV-2) thymidine kinase in vitro
- Type: biochemical
- TEST_CONTEXT: HSV-2 thymidine kinase extract; 0.3 μM 3H-thymidine, 5 mM ATP, pH 8, 37° C., 30 minutes; read-out: IC50 (concentration which inhibits enzyme activity by 50%)
RECORDED_METRIC: IC50 (nM)

| COMPOUND | OUTPUT_UNIT | READING |
| --- | --- | --- |
| CCc1cn([C@H]2C[C@H](O)[C@@H](CNC(=O)C(C)Oc3ccc(Cl)cc3Cl)O2)c(=O)[nH]c1=O (mixture of isomers) | nM | 3.7 |
| CCc1cn([C@H]2C[C@H](O)[C@@H](CNC(=O)Cc3ccccc3Br)O2)c(=O)[nH]c1=O | nM | 20 |
| CCc1cn([C@H]2C[C@H](O)[C@@H](CNC(=O)C(C)Oc3cc(Cl)c(Cl)cc3Cl)O2)c(=O)[nH]c1=O (mixture of isomers) | nM | 1.3 |
| CCc1cn([C@H]2C[C@H](O)[C@@H](CNC(=O)C(Oc3ccc(Cl)cc3Cl)c3ccccc3)O2)c(=O)[nH]c1=O (mixture of isomers) | nM | 4.7 |
| CCc1cn([C@H]2C[C@H](O)[C@@H](CNC(=O)Cc3ccc(-c4ccccc4)cc3)O2)c(=O)[nH]c1=O | nM | 70 |
| CCCc1cn([C@H]2C[C@H](O)[C@@H](CNC(=O)C(C)Oc3ccc(Cl)cc3Cl)O2)c(=O)[nH]c1=O (mixture of isomers) | nM | 3.5 |
| CCc1cn([C@H]2C[C@H](O)[C@@H](CNC(=O)C(C)Oc3cc(OC)c(Cl)cc3Cl)O2)c(=O)[nH]c1=O (mixture of isomers) | nM | 1.2 |
